All values here come from patent US11008314B2.

Reported IC50 values follow for various compounds
biological target: TXK (Homo sapiens (Human)); assay: IC50 against TXK; assay type: biochemical
Sequence (P42681 whole entry, species assumed): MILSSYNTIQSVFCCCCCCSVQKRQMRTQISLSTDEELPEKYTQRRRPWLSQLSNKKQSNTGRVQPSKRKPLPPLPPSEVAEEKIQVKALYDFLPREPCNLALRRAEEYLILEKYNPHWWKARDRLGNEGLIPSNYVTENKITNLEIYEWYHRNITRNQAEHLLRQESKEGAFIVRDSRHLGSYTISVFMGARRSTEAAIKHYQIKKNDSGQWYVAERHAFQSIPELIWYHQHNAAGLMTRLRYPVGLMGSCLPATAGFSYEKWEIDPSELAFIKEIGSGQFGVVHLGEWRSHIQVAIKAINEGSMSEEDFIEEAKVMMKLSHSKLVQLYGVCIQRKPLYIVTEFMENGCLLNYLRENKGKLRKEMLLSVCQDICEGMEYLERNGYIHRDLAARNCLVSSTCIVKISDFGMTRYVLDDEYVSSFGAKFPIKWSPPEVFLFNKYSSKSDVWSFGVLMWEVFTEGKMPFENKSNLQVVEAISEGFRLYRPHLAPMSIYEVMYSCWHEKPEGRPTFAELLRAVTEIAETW

# count of solved cases: 3
- COMPOUND: "C=CC(=O)N1CCN(C(=O)c2cc(Sc3cnc(Nc4ccccn4)s3)c(Cl)cc2C)CC1"
  MEASUREMENT LABEL: "IC50"
  OBSERVED RESULT: "10 to 100 nM"
- COMPOUND: "COc1cc(C)c(Sc2cnc(NC(=O)C3CC3)s2)cc1C(=O)N1CCN(C(=O)/C=C/CN(C)C)CC1"
  MEASUREMENT LABEL: "IC50"
  OBSERVED RESULT: "100 to 1000 nM"
- COMPOUND: "C=CC(=O)N1CCN(C(=O)c2cc(Sc3cnc(NC(=O)c4cccc(CN(C)C)c4)s3)c(C)cc2OC)CC(F)C1 (stereo not shown)"
  MEASUREMENT LABEL: "IC50"
  OBSERVED RESULT: "100 to 1000 nM"

Per the record, C=CC(=O)N1CCN(C(=O)c2cc(Cc3cnc(NC(=O)C4CC4)s3)c(C)cc2OC)CC1 has IC50 of < 10 nM
